# protocol.notes: viability loss in pontine glioma line – cell-based, SU-DIPG-XVII, MIPE5.0, CellTiter-Glo, qHTS, dose response (AID 1347060);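 on AC50: cells exposed to compound for 48 hours before viability readout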
# measurement.setup: CellTiter-Glo ATP luminescence
Inconclusive results are not listed. Active and inactive are the calls of the source. Cut-off not given; nearly all actives show AC50 up to about 26 µM.
Respond with a class label; see active, inactive

1. CCC(C)CNCC(=O)N1CCc2sccc2C1c1cccc(C)n1 (stereo not given)
inactive
2. Cc1cc(-c2ncc(CC(=O)Nc3ccc(-c4cnccn4)cn3)cc2C)ccn1
inactive
3. O=C(O)c1ccccc1C(=O)Nc1ccc(-c2ccccc2)cc1
inactive
4. Cn1cnc2c(F)c(Nc3ccc(Br)cc3Cl)c(C(=O)NOCCO)cc21
active

Turning to the following compound.
Outcome logged for NC1=N[C@@]2(c3cc(NC(=O)c4ccc(F)cn4)ccc3F)COC[C@H]2CS1 in this assay: inactive

====

# protocol.notes: growth inhibition of DIPG cells – cell-based, MIPE5.0 library, qHTS (AID 1347068);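 on IC50: cells exposed to compound for 48 hours before viability readout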
# measurement.setup: SU-DIPG-XXV viability
Results filed as inconclusive are left out. Calls of active or inactive are those of the source. No cut-off is given here; in the data, nearly all actives have IC50 up to about 30 µM.
Respond with a class label; see true (1) for active, false (0) for inactive

A selection of reference data follows.
1) C=CCNC1=C2C[C@@H](C)C[C@H](OC)[C@H](O)[C@@H](C)/C=C(\C)[C@H](OC(N)=O)[C@@H](OC)/C=C\C=C(/C)C(=O)NC(=CC1=O)C2=O
true (1)
2) Cc1ccc(S(=O)(=O)Nc2cc(-c3ccc(C#N)s3)ccc2C)cc1
true (1)
3) NC(=O)c1cnc(-c2ccc(C3(N)CCC3)cc2)c(-c2ccccc2)c1
false (0)

Turning to the following compound.
Outcome logged for COc1cccc(-c2ccc(NC(=O)C3=C(C(=O)O)CCC3)c(F)c2)c1 in this assay: false (0)

====

# protocol.notes: drug combination growth inhibition, ovarian cancer – cell-based, oncology-focused library, rucaparib conditional, profiling panel (AID 1508598)
# measurement.setup: patient-derived ovarian cancer cells, CellTiter-Glo viability, 144 h; at 0.0781 µM; OCI-P5x cells; without rucaparib; stronger effect = lower value
Reported viability is given for each of the following compounds.
Unit % implied. Number only.

1) CCOc1cc(N2CCC(O)CC2)ccc1Nc1ncc2c(n1)N(C)c1ccccc1C(=O)N2C
108
2) Cc1ccc2c(=O)c3cccc(CC(=O)O)c3oc2c1C
113
3) C[C@@H](Oc1cc(-c2cnn(C3CCNCC3)c2)cnc1N)c1c(Cl)ccc(F)c1Cl
98.8
4) Cc1ccc(C(=O)Nc2ccc(CN3CCN(C)CC3)c(C(F)(F)F)c2)cc1C#Cc1cnc2cccnn12
111
5) O=C(O)c1ccc(O)c2ncccc12
103

What viability value was documented for this compound, O=C(NOC[C@H](O)CO)c1ccc(F)c(F)c1Nc1ccc(I)cc1F ? 62.3

What viability value was documented for this compound, O=C(O)[C@H](Cc1c[nH]c2ccccc12)N1C(=O)c2ccccc2C1=O ? 98.7

What viability value was documented for this compound, Cn1cc(CNCC2CCN(c3ncc(C(=O)NO)cn3)CC2)c2ccccc21 ? 9.01

What viability value was documented for this compound, O=S(=O)(O)CCSSCCS(=O)(=O)O ? 98.9

What viability value was documented for this compound, CN1CCC(CNc2ccc3ncc(-c4cccc(OC(F)(F)F)c4)n3n2)CC1 ? 82.1

What viability value was documented for this compound, Cc1cc(Nc2cc(N3CCN(C)CC3)nc(/C=C/c3ccccc3)n2)n[nH]1 ? 107

What viability value was documented for this compound, Cc1nc2c(-c3cnc(N)nc3)nc(N3CCOCC3)nc2n1C(C)C ? 97.3

What viability value was documented for this compound, CN(c1ncccc1CNc1nc(Nc2ccc3c(c2)CC(=O)N3)ncc1C(F)(F)F)S(C)(=O)=O ? 101

What viability value was documented for this compound, O=C(NC1CCNCC1)c1[nH]ncc1NC(=O)c1c(Cl)cccc1Cl ? 89.4

What viability value was documented for this compound, CNC(=O)c1cc(Oc2ccc(NC(=O)Nc3ccc(Cl)c(C(F)(F)F)c3)c(F)c2)ccn1 ? 110

What viability value was documented for this compound, CS(=O)(=O)c1ccc(C(=O)Nc2ccc(Cl)c(-c3ccccn3)c2)c(Cl)c1 ? 103

What viability value was documented for this compound, C/C(=C\C(=O)Nc1ccccc1C(=O)O)c1ccc2ccccc2c1 ? 113

What viability value was documented for this compound, O=C(Nc1cccc(Cl)c1)Nc1ncc(CCNc2ncnc3ccsc23)s1 ? 85.1

What viability value was documented for this compound, OCCn1cc(-c2cnc3nnn(Cc4ccc5ncccc5c4)c3n2)cn1 ? 101

What viability value was documented for this compound, COc1ccc(-c2ccc3c(N4CCOC[C@@H]4C)nc(N4CCOC[C@@H]4C)nc3n2)cc1CO ? 24.2

What viability value was documented for this compound, C=CC(=O)N1CCC[C@@H](n2nc(-c3ccc(Oc4ccccc4)cc3)c3c(N)ncnc32)C1 ? 100
